# method.notes: CREB reporter modulators without forskolin, primary screen, cell-based, PC12, CRE-LacZ reporter, unstimulated (AID 1145)
# recorded.conditions: no forskolin, luminescence, 4.5 h, higher = more signal, called active from +8 up or from −8 down
Rule: met for z-score not less than 0.4, not met for anything less.

[
  {
    "compound": "[N-]=[N+]=NCc1ccccc1[C@H]1OC(c2ccc(OCCCO)cc2)=N[C@@]1(Cc1ccccc1)C(=O)NCCN1CCOCC1",
    "assigned.category": "met"
  }
]

Read the next record carefully.
Exercise: Determine whether this compound has z-score no lower than 0.4: `CN(C)C(=O)[C@@]1(Cc2ccccc2)COC(c2ccc(OCCCO)cc2)=N1`
Key: met
